Assay: self-splicing fitness, log relative to wild type (ln ratio); higher = more splicing; Tetrahymena group I intron in knt gene, E. coli kanamycin selection, DiMSum; sequences stand for … in CUCUCU…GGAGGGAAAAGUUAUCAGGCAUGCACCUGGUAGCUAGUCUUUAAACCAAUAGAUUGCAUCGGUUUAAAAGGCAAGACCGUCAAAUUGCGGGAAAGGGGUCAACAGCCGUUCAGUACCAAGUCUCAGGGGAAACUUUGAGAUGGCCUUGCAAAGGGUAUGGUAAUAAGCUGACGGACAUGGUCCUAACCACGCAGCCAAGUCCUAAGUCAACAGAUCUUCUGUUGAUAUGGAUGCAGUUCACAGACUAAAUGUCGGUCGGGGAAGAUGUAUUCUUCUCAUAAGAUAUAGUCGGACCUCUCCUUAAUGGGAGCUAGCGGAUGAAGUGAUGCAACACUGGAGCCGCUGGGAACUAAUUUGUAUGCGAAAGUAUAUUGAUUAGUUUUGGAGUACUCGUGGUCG;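 further: selection with 25 µg/mL kanamycin versus none on LB agar overnight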
Conditions: 30 °C
Measured Quantity: self-splicing fitness (ln)

ACCAAGCAAUAUUACGUGAA = -2.5
GUGUAGCAAUAUUACGGGUA = -2.39
UGGUAGCAAUAUUACGGUCA = -0.695
ACCCAGCAAUAUUACGAAUA = -2.29
GGCCAGCAAUAUUACGAAUU = -3.05
UCUGAGCAAUAUUACGAUCU = -3.4
CACGAGCAAUAUUACGCUAU = -2.42
AGAUAGCAAUAUUACGCAUG = -1.58
CGCGAGCAAUAUUACGGGCC = -2.71
GUGCAGCAAUAUUACGAACA = -1.32
GGGUAGCAAUAUUACGCGAA = -0.995
CUGGAGCAAUAUUACGACCG = -0.607
GAAGAGCAAUAUUACGGAUC = -1.1
ACUUAGCAAUAUUACGUCCU = -0.527
CUAAAGCAAUAUUACGAAGG = -1.03
AUCGAGCAAUAUUACGUGCG = -4
ACCAAGCAAUAUUACGAUGU = -1.7
UGCAAGCAAUAUUACGUGUU = -2.22
AUAGAGCAAUAUUACGAAGA = -1.28
